As shown below, each of these molecules has a reported pIC50 value.
# SYSTEM: Dihydrofolate reductase (Bacillus anthracis, UniProt Q81R22)
# Sequence (Q81R22 whole entry): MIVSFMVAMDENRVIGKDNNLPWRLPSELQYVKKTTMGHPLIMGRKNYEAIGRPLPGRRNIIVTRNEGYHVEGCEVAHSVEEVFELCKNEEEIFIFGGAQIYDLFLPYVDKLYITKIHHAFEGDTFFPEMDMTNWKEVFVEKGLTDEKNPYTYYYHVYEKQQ
pIC50: −log10 of the molar value.
QUANTITY_NAME: pIC50

MOLECULE | SYSTEM | MEASURED_VALUE
CC[C@H]1c2ccccc2C=NN1C(=O)/C=C/c1cc(Cc2cnc(N)nc2N)cc(OC)c1OC | Dihydrofolate reductase (Bacillus anthracis, UniProt Q81R22) | 7.02
C=CC(=O)N1N=Cc2ccccc2C1CCC (centres undefined) | Dihydrofolate reductase (Bacillus anthracis, UniProt Q81R22) | 7.34
CCC[C@H]1c2ccccc2C=NN1C(=O)/C=C/c1cc(Cc2cnc(N)nc2N)cc(OC)c1OC | Dihydrofolate reductase (Bacillus anthracis, UniProt Q81R22) | 7.27
CCCC[C@H]1c2ccccc2C=NN1C(=O)/C=C/c1cc(Cc2cnc(N)nc2N)cc(OC)c1OC | Dihydrofolate reductase (Bacillus anthracis, UniProt Q81R22) | 6.77

---

# SYSTEM: UniProt P00374
# Sequence (P00374 whole entry): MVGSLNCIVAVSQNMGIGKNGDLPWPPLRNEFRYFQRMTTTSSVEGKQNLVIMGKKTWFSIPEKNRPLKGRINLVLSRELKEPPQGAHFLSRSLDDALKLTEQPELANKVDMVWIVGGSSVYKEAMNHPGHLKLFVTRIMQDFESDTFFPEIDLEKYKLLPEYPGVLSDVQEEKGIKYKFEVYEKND
# TEST: Inhibition of human DHFR
QUANTITY_NAME: IC50 (µM)

CHEMICAL_STRING | ENDPOINT_UNIT | MEASURED_VALUE
CCC[C@H]1c2ccccc2C=NN1C(=O)/C=C/c1cc(Cc2cnc(N)nc2N)cc(OC)c1OC | µM | 110
